Observed GI50, system MDA-MB-435.
observed-property: GI50

O=S(=O)(NC1=NCCN1C(=S)SN1CCn2c1nsc2=S)c1cccc2ccccc12 :: 17.4 µM
[C](#Cc1ccccc1)[Hg][C]#Cc1ccccc1 :: 43.2 µM
COc1cc(OC)c(C(=O)/C=C/c2cc3c(cc2OCc2ccccc2)OC(C)(C)CC3)cc1CC=C(C)C :: 4.54 µM
COc1cc2ncn(-c3cc(OCc4ccccc4C(F)(F)F)c(C(=O)N(C)C)s3)c2cc1OC :: > 25 µM
Cc1nc(-c2ccccc2)n2nc(NCCCN3CCOCC3)ncc12 :: > 25 µM
CS(=O)(=O)CCNCc1cc(-c2cc3c(Nc4ccc(OCc5cccc(F)c5)c(Cl)c4)ncnc3s2)cs1 :: 11 µM
Cn1c(-c2c(N)n(Nc3cccc(Cl)c3)c3nc(C#N)c(C#N)nc23)nc2ccccc21 :: 3.28 µM
CC(=O)c1c(C)nc(SSc2nc(C)c(C(C)=O)c(-c3ccc(Cl)cc3)c2C#N)c(C#N)c1-c1ccc(Cl)cc1 :: > 150 µg/mL
O=C(Nc1cc(C(F)(F)F)ccc1Cl)c1ccc(NC2=C(Cl)C(=O)N(Cc3ccccc3)C2=O)cc1 :: 29.5 µM

Reference for the values: PubChem BioAssay (NCI)
